Data provenance: the supplement of paper PMC7366291

test system: Danio rerio Tg(wt1b:EGFP) embryo, pronephros; test: glomerular width (mean of left and right), fold change vs DMSO control; higher = wider glomerulus; conditions: 25 µM; exposure: 24-48 hpf
Structures can show the parent of a compound that is named as a salt.
Below: a set of entries, each annotated with reported glomerular width.
Give the value as a plain number.

Past entries and their recorded results:
CCN(CC)CCOC(=O)C(c1ccccc1)c1ccccc1 [Adiphenine hydrochloride]; 0.979
NC(CO)C(=O)NNCc1ccc(O)c(O)c1O (centres undefined) [Benserazide hydrochloride]; 1.01
C=C[C@H]1CN2CC[C@H]1C[C@@H]2[C@@H](O)c1ccnc2ccc(OC)cc12 [Quinidine hydrochloride monohydrate]; 1.13
C[C@]12CCC(=O)C=C1CC[C@@H]1[C@@H]2[C@@H](O)C[C@@]2(C)[C@H]1CC[C@]2(O)C(=O)CO [Hydrocortisone base]; 1.16
Cn1c(=O)c2c(ncn2CCO)n(C)c1=O; 0.951

Fill in the blank: the reported glomerular width of Nc1ccc(C(=O)O)c(O)c1 is ____. 0.96

And the next one, CCN1CCCC1CNC(=O)c1cc(S(N)(=O)=O)ccc1OC (centres undefined) [Sulpiride] ? 1.02

And the next one, COc1ccccc1O ? 1.01

And the next one, CC1(C)[C@H](C(=O)O)N2C(=O)C[C@H]2S1(=O)=O ? 1.07

----------
system: Danio rerio Tg(wt1b:EGFP) embryo, pronephros; test: pronephric angle neck segment to proximal convoluted tubule (mean of left and right), fold change vs DMSO control; higher = larger pronephric angle; details: 25 µM; exposure: 24-48 hpf
Counter-ions that a name gives are not always drawn.
observable: pronephric angle neck segment
Give the value as a plain number.

Cc1cc(=O)n(-c2ccccc2)n1C [Antipyrine]; 1
CC1(C)S[C@@H]2[C@H](NC(=O)[C@H](C(=O)O)c3ccsc3)C(=O)N2[C@H]1C(=O)O [Ticarcillin sodium]; 1.01
C[C@@H]1C[C@H]2[C@@H]3C[C@H](F)C4=CC(=O)C=C[C@]4(C)[C@@]3(Cl)[C@@H](O)C[C@]2(C)[C@H]1C(=O)COC(=O)C(C)(C)C [Clocortolone pivalate]; 1.08
Cc1ccc(C)c(OCCCC(C)(C)C(=O)O)c1; 1.73
Nc1nc(Cl)nc2c1ncn2[C@H]1C[C@H](O)[C@@H](CO)O1; 1.01
CN(Cc1ccc(C(C)(C)C)cc1)Cc1cccc2ccccc12 [Butenafine Hydrochloride]; 1.05
NC(=O)N1c2ccccc2C=Cc2ccccc21 [Carbamazepine]; 0.955
COc1ccc(C(=O)c2ccccc2)c(O)c1; 1.03
CN(Cc1cnc2nc(N)nc(N)c2n1)c1ccc(C(=O)N[C@@H](CCC(=O)O)C(=O)O)cc1 (racemic) [Amethopterin (R,S)]; 1.03
O=C(N[C@H](CO)[C@H](O)c1ccc([N+](=O)[O-])cc1)C(Cl)Cl; 0.935

Fill in the blank: the reported pronephric angle neck segment of OCCN1CCN(CC/C=C2/c3ccccc3Sc3ccc(Cl)cc32)CC1 [Zuclopenthixol dihydrochloride] is ____. 1.01

And the next one, COC(=O)N/N=C/c1c[n+]([O-])c2ccccc2[n+]1[O-] ? 1.13

And the next one, CN(C)CCCN1c2ccccc2Sc2ccc(C(F)(F)F)cc21 [Triflupromazine hydrochloride] ? 0.954

And the next one, CN1C(=O)CC(c2ccccc2)C1=O (stereo not drawn) [Phensuximide] ? 0.997

And the next one, CO/N=C(\C(=O)N[C@@H]1C(=O)N2C(C(=O)O)=C(COC(C)=O)CS[C@H]12)c1csc(N)n1 [Cefotaxime sodium salt] ? 0.982

And the next one, C[C@@H]1C[C@H]2[C@@H]3CCC4=CC(=O)C=C[C@]4(C)[C@@]3(Cl)[C@@H](O)C[C@]2(C)[C@@]1(OC(=O)c1ccco1)C(=O)CCl [Mometasone furoate] ? 0.993

And the next one, CCC[C@@H]1C[C@@H](C(=O)N[C@@H]([C@H]2O[C@H](SC)[C@H](O)[C@@H](O)[C@H]2O)[C@H](C)Cl)N(C)C1 [Clindamycin hydrochloride] ? 0.995

And the next one, CCN(CC)CCOC(=O)c1ccc(N)cc1 [Procaine hydrochloride] ? 1.08

And the next one, N=C(N)NCC1COC2(CCCCC2)O1 (stereo not drawn) [Guanadrel sulfate] ? 0.992

And the next one, Clc1ccc(CO/N=C(\Cn2ccnc2)c2ccc(Cl)cc2Cl)c(Cl)c1 [Oxiconazole Nitrate] ? 1.26

And the next one, CC(=O)Oc1cc(C(C)C)c(OCCN(C)C)cc1C [Moxisylyte hydrochoride] ? 0.977

And the next one, c1ccc2c(c1)CCCC2C1=NCCN1 (stereo not drawn) [Tetrahydrozoline hydrochloride] ? 0.98

And the next one, CC1(C)O[C@@H]2C[C@H]3[C@@H]4CCC5=CC(=O)C=C[C@]5(C)[C@H]4[C@@H](O)C[C@]3(C)[C@]2(C(=O)CO)O1 [Desonide] ? 1.04

And the next one, Cc1ncc([N+](=O)[O-])n1CC(O)CCl (stereo not drawn) ? 0.985

And the next one, OCCN1CCN(CCCN2c3ccccc3Sc3ccc(Cl)cc32)CC1 ? 1.03

And the next one, O=C(O)c1cn(C2CC2)c2cc(N3CCNCC3)c(F)cc2c1=O [Ciprofloxacin hydrochloride monohydrate] ? 0.988

And the next one, Cc1cccc(C)c1NC(=O)CN1CCN(CCCC(c2ccc(F)cc2)c2ccc(F)cc2)CC1 ? 0.988

And the next one, CC(=O)SCC(Cc1ccccc1)C(=O)NCC(=O)OCc1ccccc1 (stereo not drawn) ? 1.36

And the next one, Cc1ccc(NC(=O)c2ccc(CN3CCN(C)CC3)cc2)cc1Nc1nccc(-c2cccnc2)n1 ? 1.01

And the next one, CCOc1ccc2ccccc2c1C(=O)N[C@@H]1C(=O)N2[C@@H]1SC(C)(C)[C@@H]2C(=O)O [Nafcillin sodium salt monohydrate] ? 1.04
